Here's what we have: MIC numbers for Salmonella enterica subsp. enterica serovar Typhimurium C77-31.
Write down the numeric answer in µM and omit the unit.

chemical_structure=CC(C)[C@H](NC(=O)[C@H](CCCCN)NC(=O)[C@H](Cc1c[nH]c2ccccc12)NC(=O)[C@H](CCCCN)NC(=O)[C@@H](NC(=O)[C@H](CCCCN)NC(=O)[C@H](Cc1c[nH]c2ccccc12)NC(=O)[C@H](CCCCN)NC(=O)[C@@H](NC(=O)[C@H](CCCCN)NC(=O)[C@@H](N)Cc1c[nH]c2ccccc12)C(C)C)C(C)C)C(=O)N[C@@H](CCCCN)C(N)=O system="Salmonella enterica subsp. enterica serovar Typhimurium C77-31" value_unit=µM test_value=2
chemical_structure=NCCCC[C@H](NC(=O)CNC(=O)[C@H](CC(N)=O)NC(=O)[C@H](CCCCN)NC(=O)[C@H](Cc1c[nH]c2ccccc12)NC(=O)[C@H](CCCCN)NC(=O)[C@H](Cc1c[nH]c2ccccc12)NC(=O)[C@H](CCCCN)NC(=O)[C@@H](N)Cc1c[nH]c2ccccc12)C(=O)N[C@@H](Cc1c[nH]c2ccccc12)C(=O)N[C@@H](CCCCN)C(=O)N[C@@H](Cc1c[nH]c2ccccc12)C(=O)N[C@@H](CCCCN)C(=O)N[C@@H](Cc1c[nH]c2ccccc12)C(=O)O system="Salmonella enterica subsp. enterica serovar Typhimurium C77-31" value_unit=µM test_value=8

Next compound, please.
-- ask Requested read-out: MIC. Entry: CC(C)C[C@H](NC(=O)[C@H](CCCN=C(N)N)NC(=O)[C@@H](NC(=O)[C@H](CCCN=C(N)N)NC(=O)[C@@H](NC(=O)[C@H](CCCCN)NC(=O)[C@@H](NC(=O)[C@H](CCCN=C(N)N)NC(=O)[C@H](CC(C)C)NC(=O)[C@H](CCCN=C(N)N)NC(=O)[C@@H](N)C(C)C)C(C)C)[C@@H](C)O)C(C)C)C(=O)N[C@@H](CCCCN)C(N)=O
-- reply 16
